- assay notes: CIMA assay, cell viability, CCD1079SK
- applied conditions: human, CCD1079SK fibroblasts (noncancerous, proliferating), Average cell viability, CCD; 100 ug/mL
value type: viability at 72 h, 100 ug/mL (%)

* CCCCCC(O)/C=C/C=C/CCCCCCCC(=O)O (stereo not shown) [77-31-34-6 A, 13-hydroxyoctadeca-9E,11E-dienoic acid] | 13
* CCCCCCCCCCCCCCCC(=O)OCC(O)CO (stereo not shown) | 72
* CC/C=C\C/C=C\C/C=C\C/C=C\C/C=C\CCCC(=O)OCC(COC1OC(CO)C(O)C(O)C1O)OC(=O)CCCCCCCCCCCCCCC (stereo not shown) | 13
* CC/C=C\C/C=C\C/C=C\C/C=C\CCC(=O)OC(COC(=O)CCCCCCC/C=C\C/C=C\C/C=C\CC)COC1OC(CO)C(O)C(O)C1O (stereo not shown) | 19
* CCCCCCCCCCCCCCCC(=O)OCC(COC1OC(CO)C(O)C(O)C1O)OC(=O)CCCCCCCCCCCCC (stereo not shown) | 19
* CC/C=C\C/C=C\C/C=C\C/C=C\C/C=C\CCCC(=O)OCC(O)COC1OC(CO)C(O)C(O)C1O (stereo not shown) | 14
* CC/C=C\C/C=C\C/C=C\C/C=C\C/C=C\CCCC(=O)OCC(COC1OC(CO)C(O)C(O)C1O)OC(=O)CCC/C=C\C/C=C\C/C=C\C/C=C\C/C=C\CC (stereo not shown) | 17
